Biological target: Adenosine receptor A3 (Homo sapiens, UniProt P0DMS8)
Experiment: Displacement of [3H]MRE3008-F20 from human adenosine A3 receptor expressed in CHO cells; range 247-317
Assay type: cell-based
Quantity name: Ki (nM)
Dear colleague, please return just the value in nM, with no unit written.

Consider Nc1nc2nn(CCc3ccccc3)cc2c2nc(-c3ccco3)nn12 . Its measured Ki is 280

---

Target: Adenosine receptors; A2b & A3 (Homo sapiens) (UniProt P29275+P0DMS8)
Assay: Ratio of binding affinity of human A2B receptor to that of human A3 receptor
Assay type: protein assay
Quantity name: Ratio
Please reply with the number alone, leaving off any unit.

1) CCn1cc2c(nc(N)n3nc(-c4ccco4)nc23)n1 | 0.19
2) CC(C)=CCn1cc2c(nc(N)n3nc(-c4ccco4)nc23)n1 | 0.014

Please look at the following compound next.
Consider COc1ccc(NC(=O)Nc2nc3nn(CC=C(C)C)cc3c3nc(-c4ccco4)nn23)cc1 . Its measured Ratio is 1.45

---

Target: Adenosine receptor A1 (Homo sapiens, UniProt P30542)
Sequence (P30542 whole entry): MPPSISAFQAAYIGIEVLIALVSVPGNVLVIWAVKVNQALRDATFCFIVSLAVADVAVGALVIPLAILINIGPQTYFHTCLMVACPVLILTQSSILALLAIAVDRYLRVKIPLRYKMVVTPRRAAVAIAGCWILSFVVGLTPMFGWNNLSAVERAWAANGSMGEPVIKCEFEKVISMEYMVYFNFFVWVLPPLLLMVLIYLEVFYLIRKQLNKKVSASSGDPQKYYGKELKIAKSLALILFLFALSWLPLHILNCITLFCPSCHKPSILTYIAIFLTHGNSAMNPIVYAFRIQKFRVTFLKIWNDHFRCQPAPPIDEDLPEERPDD
Assay: Displacement of [3H]DPCPX from human adenosine A1 receptor expressed in CHO cells; range 267-453
Format: cell-based
Quantity name: Ki
Put down the number, then write its unit next to it.

Consider Nc1nc2nn(CCc3cccc4ccccc34)cc2c2nc(-c3ccco3)nn12 . Its measured Ki is 348 nM

---

Target: Adenosine receptor A2b (Homo sapiens, UniProt P29275)
Sequence (P29275 whole entry): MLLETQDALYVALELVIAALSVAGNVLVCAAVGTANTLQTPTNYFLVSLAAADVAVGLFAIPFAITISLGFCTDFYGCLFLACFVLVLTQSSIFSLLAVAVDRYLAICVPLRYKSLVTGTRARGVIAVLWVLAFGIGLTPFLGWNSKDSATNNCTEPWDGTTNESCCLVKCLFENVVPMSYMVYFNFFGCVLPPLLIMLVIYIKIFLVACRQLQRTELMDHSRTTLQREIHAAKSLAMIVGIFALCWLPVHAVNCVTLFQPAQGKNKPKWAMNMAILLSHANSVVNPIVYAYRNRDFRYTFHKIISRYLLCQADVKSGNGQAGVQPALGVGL
Test: Displacement of [3H]DPCPX from Adenosine A2b receptor expressed in HEK-293 cells; range 432-469
Quantity name: Ki (nM)
Dear colleague, please return just the value in nM, with no unit written.

Consider CC(C)(C)n1cc2c(nc(NC(=O)Nc3cccc(Cl)c3)n3nc(-c4ccco4)nc23)n1 . Its measured Ki is 450

---

Biological target: Adenosine receptor A3 (Homo sapiens, UniProt P0DMS8)
Sequence (P0DMS8 whole entry): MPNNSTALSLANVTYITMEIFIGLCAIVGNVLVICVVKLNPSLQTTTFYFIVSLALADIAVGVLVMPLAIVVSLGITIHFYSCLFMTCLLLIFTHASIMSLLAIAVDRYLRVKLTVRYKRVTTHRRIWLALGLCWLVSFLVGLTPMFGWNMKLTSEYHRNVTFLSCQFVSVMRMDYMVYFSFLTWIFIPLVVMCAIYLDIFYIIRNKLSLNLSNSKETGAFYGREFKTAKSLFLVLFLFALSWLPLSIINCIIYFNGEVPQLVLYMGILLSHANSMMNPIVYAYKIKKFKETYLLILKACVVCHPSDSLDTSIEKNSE
Test: biochemical
Description: Displacement of [3H]MRE3008-F20 from human adenosine A3 receptor expressed in CHO cells; range 65-78
Quantity name: Ki
Put down the number, then write its unit next to it.

Consider O=C(Nc1cccc(Cl)c1)Nc1nc2nn(CCc3cc(Br)c(Br)cc3Br)cc2c2nc(-c3ccco3)nn12 . Its measured Ki is 71 nM

---

Target: Adenosine receptor A3 (Homo sapiens, UniProt P0DMS8)
Experiment: Inhibition of cAMP accumulation in CHO cells expressing human adenosine A3 receptor; range 4.0-7.5
Format: functional, cell-based
Quantity name: IC50 (nM)
Dear colleague, please return just the value in nM, with no unit written.

Consider CCCn1cc2c(nc(NC(=O)Nc3cccc(Cl)c3)n3nc(-c4ccco4)nc23)n1 . Its measured IC50 is 5.5

---

Molecular target: Adenosine receptor A2b (Homo sapiens, UniProt P29275)
Test: Displacement of [3H]DPCPX from Adenosine A2b receptor expressed in […]; range 332-369
Assay type: cell-based
Quantity name: Ki
Put down the number, then write its unit next to it.

Consider COc1ccc(NC(=O)Nc2nc3n[nH]cc3c3nc(-c4ccco4)nn23)cc1 . Its measured Ki is 0.35 µM

---

Target: Adenosine receptor A1 (Homo sapiens)
Experiment: Tested for inhibitory activity against human adenosine A1 receptor by displacement of [3H]DPCPX expressed in CHO cells; value ranges from 2362-2575
Assay type: cell-based
Quantity name: Ki (nM)
Dear colleague, please return just the value in nM, with no unit written.

Tested on Adenosine receptor A1 (Homo sapiens): COc1ccc(NC(=O)Nc2nc3nn(CCc4cccc5ccccc45)cc3c3nc(-c4ccco4)nn23)cc1 . Observed Ki: 2470

---

Target: Adenosine receptor A1 (Homo sapiens)
Experiment: Displacement of [3H]DPCPX from human adenosine A1 receptor expressed in CHO cells; range 254-356
Format: cell-based
Quantity name: Ki (nM)
Dear colleague, please return just the value in nM, with no unit written.

Consider COc1ccc(NC(=O)Nc2nc3nn(CC=C(C)C)cc3c3nc(-c4ccco4)nn23)cc1 . Its measured Ki is 300

---

Biological target: Adenosine receptor A2a (Homo sapiens, UniProt P29274)
Sequence (P29274 whole entry): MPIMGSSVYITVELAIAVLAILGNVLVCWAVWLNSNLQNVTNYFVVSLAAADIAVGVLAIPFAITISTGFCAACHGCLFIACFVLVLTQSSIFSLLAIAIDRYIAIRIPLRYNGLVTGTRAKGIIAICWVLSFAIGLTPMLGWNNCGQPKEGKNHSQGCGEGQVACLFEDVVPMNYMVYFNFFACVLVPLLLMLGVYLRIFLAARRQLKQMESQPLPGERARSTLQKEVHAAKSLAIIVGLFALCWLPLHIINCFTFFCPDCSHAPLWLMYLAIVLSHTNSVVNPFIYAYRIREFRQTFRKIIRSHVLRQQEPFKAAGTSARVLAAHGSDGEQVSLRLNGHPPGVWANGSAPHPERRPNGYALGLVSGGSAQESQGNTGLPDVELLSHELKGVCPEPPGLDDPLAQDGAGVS
Assay: Displacement of [3H]-SCH- 58261 from human adenosine A2A receptor expressed in CHO cells; range 1770-2327
Format: cell-based
Quantity name: pKi
pKi here: minus log base 10 of the concentration, concentration in moles per litre.

Consider COc1ccc(NC(=O)Nc2nc3nn(CCc4cc(Br)c(Br)cc4Br)cc3c3nc(-c4ccco4)nn23)cc1 . Its measured pKi is 5.69

---

Target: UniProt:P29274
Assay: Displacement of [3H]-SCH- 58261 from human adenosine A2A receptor expressed in CHO cells; range 461-645
Format: cell-based
Quantity name: Ki (nM)
Dear colleague, please return just the value in nM, with no unit written.

Tested on UniProt:P29274: COc1ccc(NC(=O)Nc2nc3nn(C(C)(C)C)cc3c3nc(-c4ccco4)nn23)cc1 . Observed Ki: 545

---

Target: Adenosine receptor A3 (Homo sapiens)
Sequence (P0DMS8 whole entry): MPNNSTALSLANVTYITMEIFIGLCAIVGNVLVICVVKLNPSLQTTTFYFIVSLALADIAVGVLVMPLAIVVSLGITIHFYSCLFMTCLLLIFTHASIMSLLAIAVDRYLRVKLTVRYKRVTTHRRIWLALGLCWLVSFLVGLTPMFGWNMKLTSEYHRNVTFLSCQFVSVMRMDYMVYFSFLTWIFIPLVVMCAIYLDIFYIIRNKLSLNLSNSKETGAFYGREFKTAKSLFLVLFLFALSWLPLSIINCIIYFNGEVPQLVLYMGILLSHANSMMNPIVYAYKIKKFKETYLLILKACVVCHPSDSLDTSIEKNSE
Assay: Inhibition of cAMP accumulation in CHO cells expressing human adenosine A3 receptor; range 3.0-6.9
Format: functional, cell-based
Quantity name: IC50 (nM)
Dear colleague, please return just the value in nM, with no unit written.

Consider CCCCn1cc2c(nc(NC(=O)Nc3cccc(Cl)c3)n3nc(-c4ccco4)nc23)n1 . Its measured IC50 is 4.5

---

Molecular target: Adenosine receptor A2a (Homo sapiens, UniProt P29274)
Experiment: Displacement of [3H]-SCH- 58261 from human adenosine A2A receptor expressed in CHO cells; range 1.70-2.10
Format: cell-based
Quantity name: Ki

Consider CCn1cc2c(nc(N)n3nc(-c4ccco4)nc23)n1 . Its measured Ki is 1.95 nM

---

Molecular target: Adenosine receptor A3 (Homo sapiens)
Sequence (P0DMS8 whole entry): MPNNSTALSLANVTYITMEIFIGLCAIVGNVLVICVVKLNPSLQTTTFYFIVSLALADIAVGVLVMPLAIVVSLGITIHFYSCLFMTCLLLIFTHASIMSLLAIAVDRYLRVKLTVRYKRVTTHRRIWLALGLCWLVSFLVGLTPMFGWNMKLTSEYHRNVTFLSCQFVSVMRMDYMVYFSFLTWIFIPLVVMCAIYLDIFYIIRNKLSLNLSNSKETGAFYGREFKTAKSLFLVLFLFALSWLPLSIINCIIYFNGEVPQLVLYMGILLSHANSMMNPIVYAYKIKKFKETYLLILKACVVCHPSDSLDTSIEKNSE
Assay: Displacement of [3H]MRE3008-F20 from human adenosine A3 receptor expressed in CHO cells; range 51-70
Assay type: cell-based
Quantity name: Ki (µM)
Dear colleague, please return just the value in µM, with no unit written.

Consider O=C(Nc1cccc(Cl)c1)Nc1nc2nn(CCCc3ccccc3)cc2c2nc(-c3ccco3)nn12 . Its measured Ki is 0.06

---

Molecular target: Adenosine receptor A3 (Homo sapiens, UniProt P0DMS8)
Assay: Displacement of [3H]MRE3008-F20 from human adenosine A3 receptor expressed in CHO cells; range 0.52-0.68
Type: cell-based
Quantity name: Ki (nM)
Dear colleague, please return just the value in nM, with no unit written.

Consider CCCCn1cc2c(nc(NC(=O)Nc3cccc(Cl)c3)n3nc(-c4ccco4)nc23)n1 . Its measured Ki is 0.6

---

Molecular target: Adenosine receptor A1 (Homo sapiens, UniProt P30542)
Experiment: Displacement of [3H]DPCPX from human adenosine A1 receptor expressed in CHO cells; range 2894-3460
Format: cell-based
Quantity name: pKi
pKi here: minus log base 10 of the concentration, concentration in moles per litre.

Consider O=C(Nc1cccc(Cl)c1)Nc1nc2nn(CCc3cccc4ccccc34)cc2c2nc(-c3ccco3)nn12 . Its measured pKi is 5.50
